compounds and their reported log10 of IC50
- Method notes: Displacement of [3H]-spiroperidol from dopamine receptor in calf caudate nucleus after 20 mins by liquid scintillation counting analysis
- Parameters: species or system Bos taurus
Could you please treat all values as log10 of IC50 in nM?

Consider the worked cases shown below.
| Compound | log10 of IC50 |
| --- | --- |
| CC(C)(C)C1(O)CCN(CC2c3ccccc3CCc3ccc(Br)cc32)CC1.Cl (centres undefined) | 2.34 |
| CC(C)(C)C1(O)CCN(CC(c2ccccc2)c2ccccc2)CC1 | 3.56 |
| CC(C)(C)C1(O)CCN(CC2c3ccccc3CCc3cc(Cl)ccc32)CC1.Cl (centres undefined) | 2.43 |

# input compound: CC(C)(C)C1(O)CCN(CC2c3ccccc3C=Cc3ccccc32)CC1.Cl ; wanted: its log10 of IC50 3.18

# input compound: CC(C)(C)[C@@]1(O)CCN2C[C@@H]3c4ccccc4CCc4cccc(c43)[C@H]2C1 ; wanted: its log10 of IC50 0.26

# input compound: CC(C)(C)C1(O)CCN(CC2c3ccccc3CCc3ccccc32)CC1 ; wanted: its log10 of IC50 2.93

# input compound: CC(C)(C)[C@]1(O)CCN2C[C@@H](c3ccccc3)c3ccccc3[C@@H]2C1 ; wanted: its log10 of IC50 2.90

# input compound: CC(C)(C)C1(O)CCN(CC2c3ccccc3Oc3ccccc32)CC1.Cl ; wanted: its log10 of IC50 3.77

# input compound: CC(C)(C)C1(O)CCN(CC2c3ccccc3Sc3ccccc32)CC1.Cl ; wanted: its log10 of IC50 2.96
